tgt: PfENR (Plasmodium falciparum, UniProt Q9BJJ9)
protocol: PfENR continuous inhibition assay
Assay type: biochemical
cond: average IC50, PfENR inhibition, with NAD+ preincubation (50 μM, 45 min, 25 °C)
readout-kind: IC50 (µM)
Write down the numeric answer in µM and omit the unit.

# input Entry CC1=C(O)C(=O)C=C2C1=CC=C1[C@@]2(C)CC[C@@]2(C)[C@@H]3C[C@](C)(C(=O)O)CC[C@]3(C)CC[C@]12C [compound 1, celastrol] : reported IC50 = ?
# output 5.9

---

tgt: PfENR (Plasmodium falciparum, UniProt Q9BJJ9)
protocol: PfENR continuous inhibition assay
Format: biochemical
cond: average IC50, PfENR inhibition, without NAD+ preincubation
readout-kind: IC50 (µM)
Write down the numeric answer in µM and omit the unit.

# input Lab note: need IC50 for CC1=C(O)C(=O)C=C2C1=CC=C1[C@@]2(C)CC[C@@]2(C)[C@@H]3C[C@](C)(C(=O)O)CC[C@]3(C)CC[C@]12C on PfENR (Plasmodium falciparum, UniProt Q9BJJ9), anyone have it?
# output 4.7
